Tested on: SNB-75 CNS
Thanks in advance; please answer with one of these: active, inactive

Solved entries (count: 6):
compound=Nc1ccc2c(c1)c(N)nn2C(=O)Nc1ccc(Cc2ccccc2)cc1 category_label=inactive
compound="CSC1=NCC2(S1)c1ccccc1N(C(=O)OC(C)(C)C)C2N1CCCCC1 (centres undefined)" category_label=inactive
compound=Nc1ccc(S(=O)(=O)Nc2cnc3c(Cl)cccc3n2)cc1 category_label=inactive
compound="COc1cccc(C2NC(=S)NC(C)=C2C(=O)Nc2ccc(Cl)c(Cl)c2)c1 (centres undefined)" category_label=inactive
compound=CC(=O)Oc1ccc(/C=N/NC(N)=S)nc1 category_label=inactive
compound="CC1(C)OC2C(COS(N)(=O)=O)SC(n3cnc4cncnc43)C2O1 (centres undefined)" category_label=inactive

Please let me know the test result on file for COc1cccc(/C=C/C(=O)c2cc3c(N)c(C(=O)Nc4cccc5ccccc45)sc3nc2C)c1 . inactive

Assay outcome for Cc1cc(Cl)ccc1NS(=O)(=O)c1ccc(-c2cnc(C3CC3)o2)cc1 : what was it? active

Record request — test call for Cc1ccc(C(C)C)cc1NC(=O)Nc1ccc([N+](=O)[O-])cc1 inactive

====

Target or system SK-OV-3 ovarian: recorded GI50 listed per item.

compound=CC(=O)N(Cc1ccccc1)c1ccccc1I(=O)=O endpoint_result="81.1 µM"
compound="COc1cccc(C2NC(=S)NC(C)=C2C(=O)Nc2ccc(Cl)c(Cl)c2)c1 (configuration not stated)" endpoint_result="21.3 µM"
compound=COc1cc(NC(=O)Nc2cnc(Nc3ccc(N4CCOCC4)cc3)nc2Oc2cccc(OC)c2)cc(OC)c1 endpoint_result="2.79 µM"
compound=CO[C@]1(CN2CCN3CCCC[C@@H]3C2)/C=C/C[C@H](C)[C@@H](C)S(=O)(=O)NC(=O)c2ccc3c(c2)N(C[C@@H]2CC[C@H]21)C[C@@]1(CCCc2cc(Cl)ccc21)CO3 endpoint_result="2.67 µM"
compound=Cc1ccc(C(C)C)cc1NC(=O)Nc1ccc([N+](=O)[O-])cc1 endpoint_result="2.17 µM"

// for each compound below, give its GI50
1. C=[CH][Sn]([CH]=C)([O]c1cccc2cccnc12)[O]c1cccc2cccnc12
2. COc1ccccc1CNCCCCCCCCCCCCN1C(=O)c2ccc3c4c(ccc(c24)C1=O)C(=O)N(CCCCCCCCCCCCNCc1ccccc1OC)C3=O

1: 14.5 µM; 2: > 50 µM

====

Test system: PC-3 prostate
test description: NCI tumour cell line growth inhibition, 48 h
quantity name: TGI

Past entries and their recorded results:
compound=COc1ccccc1CNCCCCCCCCCCCCN1C(=O)c2ccc3c4c(ccc(c24)C1=O)C(=O)N(CCCCCCCCCCCCNCc1ccccc1OC)C3=O experimental_system="PC-3 prostate" endpoint_result="> 5 µM"
compound="Cc1ccc(S(=O)(=O)N(CC(O)COc2ccccc2)c2ccc(F)cc2F)cc1 (stereo not drawn)" experimental_system="PC-3 prostate" endpoint_result="25.3 µM"
compound=Cc1ccc(/C(O)=C/c2nc3ccc([N+](=O)[O-])cc3nc2/C=C(\O)c2ccc(C)cc2)cc1 experimental_system="PC-3 prostate" endpoint_result="> 100 µM"
compound=COc1cc(/C=C(\C#N)C(N)=C(C#N)C#N)cc(O)c1O experimental_system="PC-3 prostate" endpoint_result="> 100 µM"
compound="O=C(c1ccc(Cl)cc1)C1OC12C(=O)Nc1ccccc12 (stereo not drawn)" experimental_system="PC-3 prostate" endpoint_result="41 µM"
compound=Cc1nc(-c2cc3cc(Cl)ccc3oc2=O)cc2c1c(=O)oc1ccc(Cl)cc12 experimental_system="PC-3 prostate" endpoint_result="> 100 µM"

Dear colleague, could you send me TGI for each of the items below? Thanks.
1. O=C1c2ccccc2-c2[nH]c3cn[nH]c(=O)c3c21
2. CCC(CC(C)C)Nc1ccc(NC(CC)CC(C)C)cc1 (stereo not drawn)

1. > 100 µM
2. 16.3 µM

====

System: SNB-19 CNS
test description: NCI tumour cell line growth inhibition, 48 h
Task for the reader: assign each of the following compounds its reported GI50.

compound=COc1ccccc1CNCCCCCCCCCCCCN1C(=O)c2ccc3c4c(ccc(c24)C1=O)C(=O)N(CCCCCCCCCCCCNCc1ccccc1OC)C3=O endpoint_result="> 50 µM"
compound=O=C(Cc1csc2nc(-c3ccc(Br)cc3)cn12)N/N=C/c1ccc(O)cc1 endpoint_result="57.5 µM"
compound="COc1cccc(C2NC(=S)NC(C)=C2C(=O)Nc2ccc(Cl)c(Cl)c2)c1 (centres undefined)" endpoint_result="15.6 µM"
compound=CC1(C)CC[C@]2(C(N)=O)CC[C@]3(C)C(=CC[C@@H]4[C@@]5(C)C/C(=C/c6ccncc6)C(=O)C(C)(C)[C@@H]5CC[C@]43C)[C@@H]2C1 endpoint_result="1.59 µM"

Take each entry in turn and give its GI50.
1. C=[CH][Sn]([CH]=C)([O]c1cccc2cccnc12)[O]c1cccc2cccnc12
2. O=c1c2ccccc2oc2ccc(OCCCCCCN3CCCCCC3)cc12
3. CC(=O)Oc1ccc(/C=N/NC(N)=S)nc1
4. O=C(NCCCCCCCNC(=O)OCc1ccc2c(Cl)cc(Cl)c(O)c2n1)OCc1ccc2c(Cl)cc(Cl)c(O)c2n1
5. O=C1C=CC(=O)c2c(O)c(N3CCN(CCOCCO)CC3)c(Cl)c(O)c21
6. COc1cccc(/C=C/C(=O)c2cc3c(N)c(C(=O)Nc4cccc5ccccc45)sc3nc2C)c1

["8.36 µM", "4.12 µM", "8.77 µM", "1.59 µM", "13.4 µM [middle of 4 runs]", "1.69 µM"]

Field: GI50. Fill in for each record below.
1. COc1cc(NC(=O)Nc2cnc(Nc3ccc(N4CCOCC4)cc3)nc2Oc2cccc(OC)c2)cc(OC)c1
2. Oc1ccc(Cl)cc1Cc1cc(Cl)ccc1O
3. O=c1[nH]c2ccccc2n1-c1n[nH]c2ccccc12
4. OCNCCNc1nc2ccccc2c2[nH]c3ccccc3c12

1: 5.73 µM; 2: 3.52 µM; 3: 56.6 µM; 4: 2.1 µM

====

Answer each item with its documented TGI.
Tested on: NCI-H522 lung
test description: NCI tumour cell line growth inhibition, 48 h
Answers are plain numbers, in µM.

See these solved cases before continuing.
compound=COC(=O)c1c(C)nc(C)c(NO)c1-c1ccccc1C(F)(F)F experimental_system="NCI-H522 lung" endpoint_result=33.1
compound=CC1(C)CC[C@]2(C(N)=O)CC[C@]3(C)C(=CC[C@@H]4[C@@]5(C)C/C(=C/c6ccncc6)C(=O)C(C)(C)[C@@H]5CC[C@]43C)[C@@H]2C1 experimental_system="NCI-H522 lung" endpoint_result=7.76
compound=O=C(NCCCCCCCNC(=O)OCc1ccc2c(Cl)cc(Cl)c(O)c2n1)OCc1ccc2c(Cl)cc(Cl)c(O)c2n1 experimental_system="NCI-H522 lung" endpoint_result=1.15
compound=O=c1[nH]c2ccccc2n1-c1n[nH]c2ccccc12 experimental_system="NCI-H522 lung" endpoint_result=48.7

Please find the next compound below.
Give the reported TGI for this compound. O=C1CC(n2cccc2)c2c(Br)sc(Br)c21 (stereo not given) 3.27

====

Kindly state TGI for each of the entries shown.
Test system: SNB-19 CNS
test description: NCI tumour cell line growth inhibition, 48 h

Before answering, review these 3 worked examples.
compound="C/C=C1\\C(=O)OC2CCN3CCC(COC(=O)C(C)(O)C(C)C1O)C23 (stereo not drawn)" quantity_name=TGI endpoint_result="> 100 µM"
compound="FC1OC2OC1C(OCc1ccccc1)C(OCc1ccccc1)C2OCc1ccccc1 (stereo not drawn)" quantity_name=TGI endpoint_result="> 100 µM"
compound=CC(=O)Nc1cc(Nc2cc(=O)[nH]c(=O)[nH]2)ccc1C quantity_name=TGI endpoint_result="> 100 µM"

Okay, here is my list. What is TGI for each of these?
1. COc1cccc(/C=C/C(=O)c2cc3c(N)c(C(=O)Nc4cccc5ccccc45)sc3nc2C)c1
2. N#Cc1nc(C#N)n(C(=O)c2ccccc2)c1NC(=O)c1ccccc1
3. O=C1c2ccccc2C(=O)N1c1nc(-c2ccc(Cl)cc2)cc(N2N=C(c3ccc(Br)cc3)CC2c2ccccc2)n1 (stereo not drawn)
4. NC1=NCC(CN2CCCC2)O1 (stereo not drawn)

1. > 50 µM
2. > 100 µM
3. > 33.8 µM
4. > 100 µM

Would you mind listing TGI for each of the following compounds?
1. CCC1CNC(=O)CC1CC(=O)OC (stereo not drawn)
2. CC(=O)N(Cc1ccccc1)c1ccccc1I(=O)=O
3. COC(=O)CC(C(C(C)=O)C(=O)OCc1ccccc1)N1C(=O)OCC1c1ccccc1 (stereo not drawn)
4. Cc1nc2ccc(Cl)cc2c2c1CCN2c1ccccc1
5. C#CCC1(C(=O)OCC)C(=O)c2ccccc2N(C)C1=O (stereo not drawn)
6. C=[CH][Sn]([CH]=C)([O]c1cccc2cccnc12)[O]c1cccc2cccnc12

1. > 100 µM
2. > 100 µM
3. > 100 µM
4. 78.5 µM
5. > 100 µM
6. 23.8 µM

Origin of measurements: PubChem BioAssay (NCI)
